ASSAYED TARGET: T1, human serum albumin (human, UniProt P02768 25-609)
T1 construct: also called HSA
PROTOCOL SUMMARY: SPR (Biacore 3000), HSA on chip, Fc-ABDEG fusion, ratio of R0
Measured R0 5.5/7.4, listed per entry.
# respond with the number and nothing more

BINDER	R0 5.5/7.4
11C03 CDR1-V2 fused at the C-terminus of Fc-ABDEG (Fc fusion, not shown: a dimerising Fc or GST; small tags and cut ends) QLQVVESGGGLVQAGGSLRLSCAASERTFVAAPMGWFRQAPEKEREFVAGISWFAGATTDYADSVEGRFTISRDNAKNTAYLQMNNLKPEDTAVYYCAISHQLPGGRPGRDMDSYSYWGHGTQVTVSS	19
11C03 CDR1-V3 fused at the C-terminus of Fc-ABDEG (Fc fusion, not shown: a dimerising Fc or GST; small tags and cut ends) QLQVVESGGGLVQAGGSLRLSCAASERTFVAYAMGWFRQAPEKEREFVAGISWFAGATTDYADSVEGRFTISRDNAKNTAYLQMNNLKPEDTAVYYCAISHQLPGGRPGRDMDSYSYWGHGTQVTVSS	21
11C03 CDR2-V2 fused at the C-terminus of Fc-ABDEG (Fc fusion, not shown: a dimerising Fc or GST; small tags and cut ends) QLQVVESGGGLVQAGGSLRLSCAASERTFVAYPMGWFRQAPEKEREFVAGASWFAGATTDYADSVEGRFTISRDNAKNTAYLQMNNLKPEDTAVYYCAISHQLPGGRPGRDMDSYSYWGHGTQVTVSS	12

Now consider the entry below.
Tell me the measured R0 5.5/7.4 of 11C03 CDR2-V10 fused at the C-terminus of Fc-ABDEG (Fc fusion, not shown: a dimerising Fc or GST; small tags and cut ends) QLQVVESGGGLVQAGGSLRLSCAASERTFVAYPMGWFRQAPEKEREFVAGISWFAGATADYADSVEGRFTISRDNAKNTAYLQMNNLKPEDTAVYYCAISHQLPGGRPGRDMDSYSYWGHGTQVTVSS , please.
16

Where do the numbers come from? From patent US20250223342A1.
